Target: Cyclin-dependent kinase 4/cyclin D1 (Homo sapiens, UniProt P11802)
Sequence (P11802 whole entry): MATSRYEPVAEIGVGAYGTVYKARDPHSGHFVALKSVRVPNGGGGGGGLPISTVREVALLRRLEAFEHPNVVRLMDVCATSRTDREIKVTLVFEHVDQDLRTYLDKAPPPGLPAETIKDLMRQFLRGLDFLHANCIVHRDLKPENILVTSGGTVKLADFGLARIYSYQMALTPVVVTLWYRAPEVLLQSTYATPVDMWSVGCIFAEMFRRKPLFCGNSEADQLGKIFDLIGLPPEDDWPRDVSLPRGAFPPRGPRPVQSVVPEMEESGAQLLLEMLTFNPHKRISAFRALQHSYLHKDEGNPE
Sequence (P24385 whole entry, further chain): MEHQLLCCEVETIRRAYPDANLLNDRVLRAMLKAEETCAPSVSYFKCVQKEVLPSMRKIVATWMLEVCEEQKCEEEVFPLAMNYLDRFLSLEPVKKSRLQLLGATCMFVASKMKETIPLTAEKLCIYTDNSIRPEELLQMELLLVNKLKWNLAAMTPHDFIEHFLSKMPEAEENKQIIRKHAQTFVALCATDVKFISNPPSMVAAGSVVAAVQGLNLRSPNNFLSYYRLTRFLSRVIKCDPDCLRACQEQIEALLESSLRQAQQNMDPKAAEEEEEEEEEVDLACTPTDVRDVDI
Assay: Inhibition of recombinant human full-length GST-tagged CDK4/cyclinD1 expressed in baculovirus expression system using PEP as substrate incubated for 3 mins in presence of ATP by TR-FRET assay
// IC50 lookup, one value per entry

Report IC50 for CC(=O)c1c(C)c2cnc(Nc3ccc(N4CC(C)NC(C)C4)cc3)nc2n(C2CCCC2)c1=O (stereo not drawn) please. < 3.2 nM

---
Report IC50 for CN(C)C(=O)c1cc2cnc(Nc3ccc(N4CCN(CCO)CC4)c(F)c3)nc2n1C12CC(C1)C2 please. < 3.2 nM

# repeat for CC(=O)c1c(C)c2cnc(Nc3ccc(N(C)CCN(C)C)cc3)nc2n(C2CCCC2)c1=O < 3.2 nM
